- TGT: VHR (Homo sapiens)
- Sequence (P51452 whole entry, species assumed): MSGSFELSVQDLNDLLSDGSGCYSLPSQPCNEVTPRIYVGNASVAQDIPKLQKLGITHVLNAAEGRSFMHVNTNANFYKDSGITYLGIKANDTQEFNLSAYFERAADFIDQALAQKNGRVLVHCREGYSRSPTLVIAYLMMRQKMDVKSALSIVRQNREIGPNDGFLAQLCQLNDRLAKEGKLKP
QUANTITY_KIND: pKi
Keep it numeric: pKi is minus log10 of the concentration in mol/L.

Asked: Find the measured pKi: item NC(=O)C(CCC(=O)O)NC(=O)C(CCC(=O)O)NC(=O)CNC(=O)c1ccc(C=CC=O)cc1 (stereo not shown) , target or system VHR (Homo sapiens).
Given back: 3.54
